Each item that follows carries a reported Fold Increase in Lag Time; nucleation assay; 33 mole %.
biological target: natural β-amyloid peptide β-AP1-40 (human); test: cell-based or functional assay
Sequence (peptide, as listed by the source): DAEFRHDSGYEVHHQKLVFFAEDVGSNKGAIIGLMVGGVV
Ends that are not written are not given here. * marks the point of attachment. Cholyl = C[C@H](CCC(=O)*)[C@H]1CC[C@H]2[C@@H]3[C@H](O)C[C@@H]4C[C@H](O)CC[C@]4(C)[C@H]3C[C@H](O)[C@]12C
Please respond with the number in fold and leave the unit unwritten.

- Binder: "Cholyl-DSGYEVHHQKLVFF [cholyl-Aβ7-20]"
  Val: 2
- Binder: "Cholyl-QKLVFF-OH (SMILES CC(C)C[C@H](NC(=O)[C@H](CCCCN)NC(=O)[C@H](CCC(N)=O)NC(=O)CC[C@@H](C)[C@H]1CC[C@H]2[C@@H]3[C@H](O)C[C@@H]4C[C@H](O)CC[C@]4(C)[C@H]3C[C@H](O)[C@]12C)C(=O)N[C@H](C(=O)N[C@@H](Cc1ccccc1)C(=O)N[C@@H](Cc1ccccc1)C(=O)O)C(C)C) [cholyl-Aβ15-20]"
  Val: 2.3
- Binder: "Cholyl-HDSGYEVHHQKL-NH2 (SMILES CC(C)C[C@H](NC(=O)[C@H](CCCCN)NC(=O)[C@H](CCC(N)=O)NC(=O)[C@H](Cc1c[nH]cn1)NC(=O)[C@H](Cc1c[nH]cn1)NC(=O)[C@@H](NC(=O)[C@H](CCC(=O)O)NC(=O)[C@H](Cc1ccc(O)cc1)NC(=O)CNC(=O)[C@H](CO)NC(=O)[C@H](CC(=O)O)NC(=O)[C@H](Cc1c[nH]cn1)NC(=O)CC[C@@H](C)[C@H]1CC[C@H]2[C@@H]3[C@H](O)C[C@@H]4C[C@H](O)CC[C@]4(C)[C@H]3C[C@H](O)[C@]12C)C(C)C)C(N)=O) [cholyl-Aβ6-17-amide]"
  Val: 1.8

Q. // fetch Fold Increase in Lag Time; nucleation assay; 33 mole % given entry Cholyl-HHQKLVFF [cholyl-Aβ13-20]
A. 2.6
